Value source: the supplement of paper PMC10567573

B1: ZC3H15 (parent)
chain: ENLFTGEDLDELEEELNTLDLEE

# Variants of: B1
# Assay Explanation: protein stability index of a GFP-peptide fusion (GPS, HEK-293T) (PSI 1-6); higher = more stable;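 also: lentivirally expressed fusions sorted by FACS into six bins by GFP to DsRed ratio, PSI derived from sequencing read proportions per bin multiplied by bin number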
# Assay Conditions: c terminus: native
Listing of recorded protein stability index by entry.
Respond using a number only.

Task: Fill in: protein stability index of ENLFTGEDLDELEEELNTLDYEE is ___
Output: 3.62
